study.system: D(1A) dopamine receptor (Homo sapiens) (UniProt P21728)
Sequence (P21728 whole entry, looked up): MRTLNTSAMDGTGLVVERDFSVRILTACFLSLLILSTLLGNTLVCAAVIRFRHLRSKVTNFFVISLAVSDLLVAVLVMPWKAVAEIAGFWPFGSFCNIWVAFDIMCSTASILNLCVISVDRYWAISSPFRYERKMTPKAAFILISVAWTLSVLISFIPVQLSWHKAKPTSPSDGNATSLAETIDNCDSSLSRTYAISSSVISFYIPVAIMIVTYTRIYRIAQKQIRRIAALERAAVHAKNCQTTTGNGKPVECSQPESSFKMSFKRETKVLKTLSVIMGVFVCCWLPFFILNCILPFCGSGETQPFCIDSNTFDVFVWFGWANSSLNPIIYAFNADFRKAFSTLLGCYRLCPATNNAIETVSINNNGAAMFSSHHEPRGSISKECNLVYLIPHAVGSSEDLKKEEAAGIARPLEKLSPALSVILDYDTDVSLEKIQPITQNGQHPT
test.method.notes: HTS Assay for Allosteric Agonists of the Human D1 Dopamine Receptor: Primary Screen for Agonists (AID 488981); note: 0% is about no effect
condition.notes: Inducible HEK293 T-REx D1 cells, calcium-flux fluorescence, 180 s kinetic; series mostly up to 41.8 µM
Inconclusive results are not listed. Activity calls are given as the source filed them. Calls come from the whole dose curve; as a rule, active = well fitted activation curve with a large enough effect; inconclusive = small, poorly fitted or top-dose-only effect; inactive = flat fitted curve, though single readings scatter.
measured.property: outcome

Take a look at these entries with their results.
| compound | outcome |
| --- | --- |
| C[N+](C)(C)CCCCCCCCCC[N+](C)(C)C | inactive |
| C#CCN(C)CCCOc1ccc(Cl)cc1Cl | inactive |
| OC(CCN1CCCCC1)(c1ccccc1)C1CCCCC1 (configuration not stated) | inactive |
| CCOC(=O)C1=C(C)NC(C)=C(C(=O)OC)C1c1cccc(Cl)c1Cl (configuration not stated) | inactive |
| CC(C)NNC(=O)c1ccncc1 | inactive |
| CNCCCN1c2ccccc2CCc2ccccc21 | inactive |

Please examine the following record next.
Query block: Give the measured outcome for Cc1ccc(/C(=C\CN2CCCC2)c2ccccn2)cc1
Result block: inactive

----------
System: CP185
test.method.notes: qHTS profiling for inhibitors of Plasmodium falciparum proliferation (AID 504749); note: nearly all actives have a fitted effect of over 60% in size
condition.notes: P. falciparum in erythrocytes, SYBR Green DNA, 72 h; series mostly up to 28.7 µM
Inconclusive results are not listed. Activity calls are given as the source filed them. The call rests on the fitted dose curve; in most records, active means well fitted inhibition curve with a large enough effect; inconclusive means small, poorly fitted or top-dose-only effect; inactive means flat fitted curve, though single readings scatter.
Entry note: the call must match one of y for active, n for inactive

Some solved cases for reference:
| molecule | cat |
| --- | --- |
| CN(C(=O)CCCOc1ccc2[nH]c(=O)ccc2c1)C1CCCCC1 | n |
| c1cnc(N2CCN(Cc3ccc4c(c3)OCO4)CC2)nc1 | n |
| Cc1nc2c([nH]1)c(=O)n(C)c(=O)n2Cc1ccco1 | n |

Query block: Hey, what did the test say about NC1=NCC2c3ccccc3Cc3ccccc3N12 (stereo not drawn) ?
Result block: n

Query block: Hey, what did the test say about Cc1nnc(SCC2=C(C(=O)O)N3C(=O)[C@@H](NC(=O)Cn4cnnn4)[C@H]3SC2)s1 ?
Result block: n

Query block: Hey, what did the test say about CCC(=O)c1ccc2c(c1)N(CCCN(C)C)c1ccccc1S2 ?
Result block: n

Query block: Hey, what did the test say about CCn1cc(C(=O)O)c(=O)c2cc3c(cc21)OCO3 ?
Result block: n

Query block: Hey, what did the test say about O=C1NCN(c2ccccc2)C12CCN(CCCC(c1ccc(F)cc1)c1ccc(F)cc1)CC2 ?
Result block: y

Query block: Hey, what did the test say about CC[N+](C)(C)c1cccc(O)c1 ?
Result block: n

Query block: Hey, what did the test say about CC(C)NNC(=O)c1ccncc1 ?
Result block: n

Query block: Hey, what did the test say about CN(C)C(=O)Oc1ccc[n+](C)c1 ?
Result block: n

Query block: Hey, what did the test say about C[C@]12CCC(=O)C=C1CC[C@@H]1[C@@H]2CC[C@@]2(C)[C@H]1CC[C@]2(O)C(=O)CO ?
Result block: n

Query block: Hey, what did the test say about C#CCN(C)CCCOc1ccc(Cl)cc1Cl ?
Result block: n

----------
study.system: Cytochrome P450 2C9 (Homo sapiens)
test.method.notes: Cytochrome P450 family 2 subfamily C member 9 (CYP2C9) small molecule antagonists: luciferase biochemical (cell-free) qHTS assay (AID 1645842); note: nearly all actives have a fitted effect of over 55% in size
condition.notes: P450-Glo CYP2C9 enzyme assay, luciferin luminescence; series mostly up to 57.4 µM
Results filed as inconclusive are left out. Activity calls are given as the source filed them. Calls follow the shape of the dose curve; as a rule, active = well fitted inhibition curve with a large enough effect in the repeat runs; inconclusive = weak or mixed curves; inactive = no such curve, though single readings can be large or run the other way.
Entry note: the call must match one of 1.0 for active, 0.0 for inactive

Some solved cases for reference:
| compound | study.system | cat |
| --- | --- | --- |
| COc1ccc([C@@H]2Sc3ccccc3N(CCN(C)C)C(=O)[C@@H]2OC(C)=O)cc1 | Cytochrome P450 2C9 (Homo sapiens) | 0.0 |
| C[C@]12CC[C@@H]3c4ccc(O)cc4C[C@@H](CCCCCCCCCS(=O)CCCC(F)(F)C(F)(F)F)[C@H]3[C@@H]1CC[C@@H]2O (stereo partly specified) | Cytochrome P450 2C9 (Homo sapiens) | 1.0 |
| O=C(O)CP(=O)(O)O | Cytochrome P450 2C9 (Homo sapiens) | 0.0 |
| NC1=NCC2c3ccccc3Cc3ccccc3N12 (stereo unspecified) | Cytochrome P450 2C9 (Homo sapiens) | 0.0 |
| Nc1c2c(nc3ccccc13)CCCC2O (stereo unspecified) | Cytochrome P450 2C9 (Homo sapiens) | 0.0 |
| CCCNC(C)C(=O)Nc1ccccc1C (stereo unspecified) | Cytochrome P450 2C9 (Homo sapiens) | 0.0 |
| CN(C)CC[C@@H](c1ccc(Br)cc1)c1ccccn1 | Cytochrome P450 2C9 (Homo sapiens) | 0.0 |
| C[N+](C)(C)CCCCCCCCCC[N+](C)(C)C | Cytochrome P450 2C9 (Homo sapiens) | 0.0 |

Query block: Hey, what did the test say about C[C@]12CCC(=O)C=C1CC[C@@H]1[C@@H]2CC[C@@]2(C)[C@H]1CC[C@]2(O)C(=O)CO ?
Result block: 0.0

Query block: Hey, what did the test say about FC(F)(F)c1ccccc1-n1ccnc1 ?
Result block: 1.0

Query block: Hey, what did the test say about CC(C)(C)NCC(O)c1cc(O)cc(O)c1 (stereo unspecified) ?
Result block: 0.0
